TARGET_OR_SYSTEM: Beta-2 adrenergic receptor (Homo sapiens)
Sequence (P07550 whole entry, looked up): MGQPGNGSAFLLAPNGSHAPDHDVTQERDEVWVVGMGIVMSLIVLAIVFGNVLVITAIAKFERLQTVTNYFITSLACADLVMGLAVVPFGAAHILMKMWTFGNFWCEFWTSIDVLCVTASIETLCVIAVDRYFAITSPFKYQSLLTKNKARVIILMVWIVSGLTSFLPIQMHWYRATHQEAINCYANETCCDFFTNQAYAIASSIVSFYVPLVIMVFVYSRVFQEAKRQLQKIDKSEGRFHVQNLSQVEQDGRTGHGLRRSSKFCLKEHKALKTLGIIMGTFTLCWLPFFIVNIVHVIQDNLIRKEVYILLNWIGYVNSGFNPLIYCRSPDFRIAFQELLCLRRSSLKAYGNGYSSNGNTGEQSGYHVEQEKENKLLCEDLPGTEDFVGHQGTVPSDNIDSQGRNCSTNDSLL
PROCEDURE_SUMMARY: Agonistic activity at human Beta-2 adrenergic receptor at 1000 nM concentration
Type: functional
MEASUREMENT_KIND: Activity (%)

Here is how some compounds turned out for Activity.
> print(dat)
                               entry.smiles  assay.value
1  COc1cccc2c(CCNC[C@H](O)c3cccc(NS(=O)(=O)c4cccs4)c3)c[nH]c12           16
2  CS(=O)(=O)Oc1cccc2c(CCNC[C@H](O)c3cccc(NS(=O)(=O)c4cc(Cl)c(Cl)s4)c3)c[nH]c12           18
3  CS(=O)(=O)Oc1cccc2c(CCNC[C@H](O)c3cccc(NS(=O)(=O)c4ccccc4)c3)c[nH]c12           15

P = CS(=O)(=O)Oc1cccc2c(CCNC[C@H](O)c3cccc(NS(=O)(=O)c4cccc(F)c4)c3)c[nH]c12
Q = CS(=O)(=O)Oc1cccc2c(CCNC[C@H](O)c3cccc(NS(=O)(=O)c4cccs4)c3)c[nH]c12
Between P and Q , which one shows the smaller Activity number? Lab log: write the label of the selected item as the result.
P

====

TARGET_OR_SYSTEM: Beta-3 adrenergic receptor (Homo sapiens)
PROCEDURE_SUMMARY: Intrinsic activity expressed as percentage of maximal stimulation with isoproterenol of Beta-3 adrenergic receptor
Assay type: functional
Sequence (P13945 whole entry, looked up): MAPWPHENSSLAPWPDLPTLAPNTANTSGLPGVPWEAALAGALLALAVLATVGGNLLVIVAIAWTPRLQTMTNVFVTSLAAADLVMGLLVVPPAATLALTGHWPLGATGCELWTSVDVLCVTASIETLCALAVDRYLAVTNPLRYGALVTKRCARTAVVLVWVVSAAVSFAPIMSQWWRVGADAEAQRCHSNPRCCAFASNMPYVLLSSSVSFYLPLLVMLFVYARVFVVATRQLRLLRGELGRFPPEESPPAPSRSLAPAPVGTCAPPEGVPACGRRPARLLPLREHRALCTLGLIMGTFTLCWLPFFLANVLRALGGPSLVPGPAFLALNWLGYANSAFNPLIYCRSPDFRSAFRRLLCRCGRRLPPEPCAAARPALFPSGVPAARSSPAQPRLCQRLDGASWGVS
MEASUREMENT_KIND: IA (%)

Here is how some compounds turned out for IA.
> print(dat)
                               entry.smiles  assay.value
1  CS(=O)(=O)Oc1cccc2c(CCNC[C@H](O)c3cccc(NS(=O)(=O)c4ccccc4N)c3)c[nH]c12           80
2  CS(=O)(=O)Oc1cccc2c(CCNC[C@H](O)c3cccc(NS(=O)(=O)c4ccc(N)cc4)c3)c[nH]c12           85
3  C[C@H](Cc1c[nH]c2c(OS(C)(=O)=O)cccc12)NC[C@H](O)c1cccc(NS(=O)(=O)c2cccs2)c1           97
4  CS(=O)(=O)Oc1cccc2c(CCNC[C@H](O)c3cccc(NS(=O)(=O)c4cc(Cl)c(Cl)s4)c3)c[nH]c12           93
5  CS(=O)(=O)Oc1cccc2c(CCNC[C@H](O)c3cccc(NS(=O)(=O)c4cccc(N)c4)c3)c[nH]c12          105

a = O=S(=O)(Nc1cccc([C@@H](O)CNCCc2c[nH]c3c(OCc4ccccc4)cccc23)c1)c1cccs1
b = CS(=O)(=O)Oc1cccc2c(CCNC[C@H](O)c3cccc(NS(=O)(=O)CC(F)(F)F)c3)c[nH]c12
Between a and b , which one shows the smaller IA number? Lab log: write the label of the selected item as the result.
b
(b: 49%, a: 81%)

====

TARGET_OR_SYSTEM: Beta-3 adrenergic receptor (Homo sapiens)
PROCEDURE_SUMMARY: Agonistic activity was determined by measuring cAMP accumulation in CHO cells expressing cloned human Beta-3 adrenergic receptor
Sequence (P13945 whole entry): as the sequence (P13945 whole entry, looked up) above
MEASUREMENT_KIND: EC50 (nM)

Here is how some compounds turned out for EC50.
> print(dat)
                               entry.smiles                          target.or.system  assay.value
1  CS(=O)(=O)Oc1cccc2c(CCNC[C@H](O)c3cccc(NS(=O)(=O)CC(F)(F)F)c3)c[nH]c12  Beta-3 adrenergic receptor (Homo sapiens)           48
2  O=S(=O)(Nc1cccc([C@@H](O)CNCCc2c[nH]c3ccccc23)c1)c1cccs1  Beta-3 adrenergic receptor (Homo sapiens)           21
3  CS(=O)(=O)Oc1cccc2c(CCNC[C@H](O)c3cccc(NS(=O)(=O)c4ccccc4)c3)c[nH]c12  Beta-3 adrenergic receptor (Homo sapiens)            2
4  C[C@H](Cc1c[nH]c2c(OS(C)(=O)=O)cccc12)NC[C@H](O)c1cccc(NS(=O)(=O)c2cccs2)c1  Beta-3 adrenergic receptor (Homo sapiens)         0.21
5  CS(=O)(=O)Oc1cccc2c(CCNC[C@H](O)c3cccc(NS(=O)(=O)c4cccs4)c3)c[nH]c12  Beta-3 adrenergic receptor (Homo sapiens)          1.7

P = CS(=O)(=O)Oc1cccc2c(CCNC[C@H](O)c3cccc(NS(=O)(=O)c4ccc(N)cc4)c3)c[nH]c12
Q = Cc1cccc2c(CCNC[C@H](O)c3cccc(NS(=O)(=O)c4cccs4)c3)c[nH]c12
Between P and Q , which one shows the smaller EC50 number? Lab log: write the label of the selected item as the result.
P
(P: 8.4 nM, Q: 25 nM)
